Species: Rattus norvegicus
Test Summary: DrugMatrix - Regimen: Daily Repeat
Format: toxicity, organism-based, Sprague-Dawley
Parameters: regimen Daily Repeat, gender Male, age 6-8 weeks
Condition Description: in vivo, po, 0 mg/kg, 120 h, tissue Blood, route oral GAVAGE, dose level Control, time 5 day, vehicle .5 % CMC
List of MEAN CORPUSCULAR HEMOGLOBIN CONCENTRATION values.
Result Type: MEAN CORPUSCULAR HEMOGLOBIN CONCENTRATION (G/DL)

Compound | Reported Result
CN/C(=N/CCSCc1nc[nH]c1C)NC#N | 40.35
COC1=C(OC)C(=O)C(CCCCCCCCCCO)=C(C)C1=O | 40.35
NC1CCN(c2nc3c(cc2F)c(=O)c(C(=O)O)cn3-c2ccc(F)cc2F)C1 (stereo not drawn) | 37.1
O=C1C(CC[S+]([O-])c2ccccc2)C(=O)N(c2ccccc2)N1c1ccccc1 (stereo not drawn) | 38.9
CC(=O)Oc1ccc(C(c2ccc(OC(C)=O)cc2)c2ccccn2)cc1 | 38.25
CN(C)[C@@H]1C(O)=C(C(N)=O)C(=O)[C@@]2(O)C(O)=C3C(=O)c4c(O)ccc(Cl)c4[C@@](C)(O)[C@H]3C[C@@H]12 | 40.2
CN(C/C=C/C#CC(C)(C)C)Cc1cccc2ccccc12 | 37.1
NCCCC(O)(P(=O)(O)O)P(=O)(O)O | 39.62
COc1cc2nc(N3CCN(C(=O)c4ccco4)CC3)nc(N)c2cc1OC | 38.9
CCN(CC)CCOc1ccc(/C(=C(/Cl)c2ccccc2)c2ccccc2)cc1 | 37.47
CNCCC(Oc1ccc(C(F)(F)F)cc1)c1ccccc1 (stereo not drawn) | 39.97
Cn1c(=O)c2c(ncn2CC(O)CO)n(C)c1=O (stereo not drawn) | 40.2
O=C1Nc2ccc(Cl)cc2C(c2ccccc2Cl)=NC1O (stereo not drawn) | 38.9
Clc1ccccc1CN1CCc2sccc2C1 | 39.62
COc1ccc(C2C(=O)c3ccccc3C2=O)cc1 | 39.62
CC(C(=O)O)c1ccc2oc(-c3ccc(Cl)cc3)nc2c1 (stereo not drawn) | 31.62
O=C1CN=C(c2ccccc2Cl)c2cc([N+](=O)[O-])ccc2N1 | 40.35
C[C@H]1O[C@@H](n2cc(F)c(=O)[nH]c2=O)[C@H](O)[C@@H]1O | 40.35
